GI50 overview
Tested on: HCC-2998 colon
Assay: NCI tumour cell line growth inhibition, 48 h

Past entries and their recorded results:
O=C(C[C@@]1(O)C(=O)Nc2c(Cl)ccc(Cl)c21)c1ccc(C2CC2)cc1 | 888 nM
O=C1c2ccc3c4c(ccc(c24)C(=O)N1CCCNCc1ccccc1)C(=O)N(CCCNCc1ccccc1)C3=O | 154 nM
COc1ccc(S(=O)(=O)NC2=NCCN2C(=S)SN2CCn3c2nsc3=S)cc1OC | 24700 nM
C[C@H](C(=O)N[C@@H](Cc1ccc(-c2ccccc2)cc1)C(=O)NC1CC(C)(C)N(C)C(C)(C)C1)c1ccc(-c2ccccc2)c(F)c1 | 1740 nM
Clc1nc(Cl)c2ncn(C/C=C/Cn3cnc4c(Cl)nc(Cl)nc43)c2n1 | 16000 nM
COc1cccc2c1nc1cccc(OC)c1[n+]2[O-] | 1500 nM

Which GI50 reading was recorded for the compound COc1cc(-c2nc(-c3nnc(-c4ccc(F)c(Cl)c4)o3)c3ccccn23)cc(OC)c1OC ?
5640 nM

Which GI50 reading was recorded for the compound Cc1cc(O)c(C2=NN(c3ccc(S(N)(=O)=O)cc3)C(c3ccccc3O)C2)cc1Cl (stereo unspecified) ?
2000 nM

Which GI50 reading was recorded for the compound COc1cc(C(C)(C)C)cc(OC)c1C(O)(c1c(OC)cc(C(C)(C)C)cc1OC)c1c(OC)cc(C(C)(C)C)cc1OC ?
429 nM

Which GI50 reading was recorded for the compound COC1=C(C)C(=O)C2=C(C1=O)C(CO)N1C(C#N)C3CC4C(C1C2N1CCOC41)N3C (stereo unspecified) ?
3.95 nM

Which GI50 reading was recorded for the compound COc1ccc2c(c1)CC[C@@H]1[C@@H]2CC[C@]2(C)c3[nH]ncc3C[C@@H]12 ?
13700 nM
